Numbers sourced from ChEMBL document CHEMBL1795342.

- Assay: Half life in rat at 1 mg/kg, iv
- Format: ADME, organism-based
- Set-up: dose 1 mg/kg, route intravenous
- Test Settings: in vivo
Measurement Label: half-life (h)
Reply numerically in h, unit not repeated.

>>> df
                                        smi  measurement_label  measurement
0  CC1=C(CN2CC(C(=O)O)C2)CCc2cc(OCCCCc3ccccc3)ccc21          half-life           11

Fill blank: measured half-life of the molecule `CC1=C(CNCCC(=O)O)CCc2cc(OCCCCc3ccccc3)ccc21` is ____.
5.2

----------
- Target Under Test: Sphingosine 1-phosphate receptor 1 (Homo sapiens, UniProt P21453)
- Sequence (P21453 whole entry): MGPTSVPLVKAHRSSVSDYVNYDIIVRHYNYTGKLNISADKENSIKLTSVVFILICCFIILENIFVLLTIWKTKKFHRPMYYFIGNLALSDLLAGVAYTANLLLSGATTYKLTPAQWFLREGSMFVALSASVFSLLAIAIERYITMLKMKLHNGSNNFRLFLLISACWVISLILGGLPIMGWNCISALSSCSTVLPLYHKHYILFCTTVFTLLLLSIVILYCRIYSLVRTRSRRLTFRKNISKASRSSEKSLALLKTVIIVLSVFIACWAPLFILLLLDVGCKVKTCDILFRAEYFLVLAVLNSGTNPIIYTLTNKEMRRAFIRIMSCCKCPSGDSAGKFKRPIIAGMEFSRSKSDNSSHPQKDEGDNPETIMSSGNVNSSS
- Assay: Agonist activity at human S1P1 receptor expressed in CHO cells assessed as intracellular calcium levels
- Type: functional, cell-based
API: label(entry) gives Fulfilled if the entry's EC50 is strictly smaller than 200 nM; on equality or larger values it gives Not fulfilled.

In [3]: df
Out[3]:
                                        smi  assigned_class
0   Cc1cc(/C=C/CNCCC(=O)O)ccc1OCCCCc1ccccc1   Not fulfilled
1  COc1cc(OCCCCc2ccccc2)ccc1/C=C/CNCCC(=O)O   Not fulfilled
2  O=C(O)C1CCN(C/C=C/c2ccc(OCCCc3ccccc3)cc2)CC1   Not fulfilled
3  C/C(=C\c1ccc(OCCCCc2ccccc2)cc1)CNCCC(=O)O       Fulfilled
4  O=C(O)CCNC/C=C/c1ccc(OCCCCc2ccccc2)cc1Cl       Fulfilled
5  CC1=C(CN2CC(C(=O)O)C2)CCc2cc(OCCCCc3ccccc3)ccc21       Fulfilled
6  CC1=C(CN2CC(C(=O)O)C2)CCCc2cc(OCCCCc3ccccc3)ccc21   Not fulfilled
7  O=C(O)C1CN(C/C=C/c2ccc(OCCCc3ccccc3)cc2)C1       Fulfilled
8   O=C(O)CCNC/C=C/c1ccc(OCCCCCc2ccccc2)cc1       Fulfilled
9   Cc1cc(OCCCCc2ccccc2)ccc1/C=C/CNCCC(=O)O       Fulfilled

API: query returns whether the compound falls strictly under 200 nM in EC50. Query: `O=C(O)CCNCC1=Cc2ccc(OCCCCc3ccccc3)cc2CC1`
Fulfilled

Next entry: `O=C(O)CCNC/C=C/c1ccc(OCCCCc2ccccc2)cc1`
Fulfilled

Next entry: `CC1=C(CNCCC(=O)O)CCc2cc(OCCCCc3ccccc3)ccc21`
Fulfilled
